The reported measurements were obtained from ChEMBL document CHEMBL4184105.

- ASSAY_METHOD_TEXT: Stability of compound at pH 5 after 24 hrs by HPLC-MS analysis
- Assay type: physicochemical
- TEST_SETTINGS: buffer, pH 5, 24 h
ATTRIBUTE_MEASURED: Stability

SMILES_STR: CC(=O)N[C@H]1[C@H](OCCn2cc(CCCC(=O)O[C@H]3C[C@H]4OC[C@@]4(OC(C)=O)[C@H]4[C@H](OC(=O)c5ccccc5)[C@]5(O)C[C@H](OC(=O)[C@H](OC(=O)CCCc6cn(CCO[C@@H]7O[C@H](CO)[C@H](O)[C@H](O)[C@H]7NC(C)=O)nn6)[C@@H](NC(=O)c6ccccc6)c6ccccc6)C(C)=C([C@@H](OC(C)=O)C(=O)[C@]34C)C5(C)C)nn2)O[C@H](CO)[C@H](O)[C@@H]1O
VALUE: Stable
//
SMILES_STR: CC(=O)N[C@H]1[C@H](OCCn2cc(CCCC(=O)O[C@@H](C(=O)O[C@H]3C[C@@]4(O)[C@@H](OC(=O)c5ccccc5)[C@@H]5[C@]6(OC(C)=O)CO[C@@H]6C[C@H](O)[C@@]5(C)C(=O)[C@H](OC(C)=O)C(=C3C)C4(C)C)[C@@H](NC(=O)c3ccccc3)c3ccccc3)nn2)O[C@H](CO)[C@H](O)[C@@H]1O
VALUE: Stable
//
SMILES_STR: CC(=O)N[C@@H]1[C@@H](O)[C@@H](O)[C@@H](CO)O[C@H]1n1cc(CCCC(=O)O[C@@H](C(=O)O[C@H]2C[C@@]3(O)[C@@H](OC(=O)c4ccccc4)[C@@H]4[C@]5(OC(C)=O)CO[C@@H]5C[C@H](O)[C@@]4(C)C(=O)[C@H](OC(C)=O)C(=C2C)C3(C)C)[C@@H](NC(=O)c2ccccc2)c2ccccc2)nn1
VALUE: Stable
